run.description: MEF proliferation (uninfected mouse embryo fibroblasts, in vitro)
Assay type: cell-based
condition.parameters: time of exposure 72 hours, read-out: ID50 MEF proliferation
value.kind: CC50 at 72 h (µg/mL)
Number in µg/mL, nothing else.

A selection of reference data follows.
{"columns": ["molecule", "CC50 at 72 h / µg/mL"],
 "data": [
  ["COc1cccc2c1C(=O)c1c(O)c3c(c(O)c1C2=O)C[C@@](O)(C(C)=O)C[C@@H]3O[C@H]1C[C@H](N)[C@H](O)[C@H](C)O1", 0.009],
  ["COc1cccc2c1C(=O)c1c(O)c3c(c(O)c1C2=O)C[C@@](O)(C(=O)CO)C[C@@H]3O[C@H]1C[C@H](N)[C@@H](O)[C@H](CO)O1 [4'-epi-6'-hydroxyadriamycin]", 0.05],
  ["COc1cccc2c1C(=O)c1c(O)c3c(c(O)c1C2=O)C[C@@](O)(C(=O)CO)C[C@@H]3O[C@H]1C[C@H](N)[C@H](O)[C@H](C)O1", 0.007]
]}

// next entry
Indicate its recorded CC50 at 72 h; the molecule in question is COc1cccc2c1C(=O)c1c(O)c3c(c(O)c1C2=O)C[C@@](O)(C(C)=O)C[C@@H]3O[C@H]1C[C@H](N)[C@@H](O)[C@H](CO)O1 [4'-epi-6'-hydroxydaunomycin]
0.25
